- Assay target: T1, EsCas13d, nuclease-dead (Eubacterium siraeum, UniProt B0MS50, R295A;H300A;R849A;H854A)
- T1 sequence: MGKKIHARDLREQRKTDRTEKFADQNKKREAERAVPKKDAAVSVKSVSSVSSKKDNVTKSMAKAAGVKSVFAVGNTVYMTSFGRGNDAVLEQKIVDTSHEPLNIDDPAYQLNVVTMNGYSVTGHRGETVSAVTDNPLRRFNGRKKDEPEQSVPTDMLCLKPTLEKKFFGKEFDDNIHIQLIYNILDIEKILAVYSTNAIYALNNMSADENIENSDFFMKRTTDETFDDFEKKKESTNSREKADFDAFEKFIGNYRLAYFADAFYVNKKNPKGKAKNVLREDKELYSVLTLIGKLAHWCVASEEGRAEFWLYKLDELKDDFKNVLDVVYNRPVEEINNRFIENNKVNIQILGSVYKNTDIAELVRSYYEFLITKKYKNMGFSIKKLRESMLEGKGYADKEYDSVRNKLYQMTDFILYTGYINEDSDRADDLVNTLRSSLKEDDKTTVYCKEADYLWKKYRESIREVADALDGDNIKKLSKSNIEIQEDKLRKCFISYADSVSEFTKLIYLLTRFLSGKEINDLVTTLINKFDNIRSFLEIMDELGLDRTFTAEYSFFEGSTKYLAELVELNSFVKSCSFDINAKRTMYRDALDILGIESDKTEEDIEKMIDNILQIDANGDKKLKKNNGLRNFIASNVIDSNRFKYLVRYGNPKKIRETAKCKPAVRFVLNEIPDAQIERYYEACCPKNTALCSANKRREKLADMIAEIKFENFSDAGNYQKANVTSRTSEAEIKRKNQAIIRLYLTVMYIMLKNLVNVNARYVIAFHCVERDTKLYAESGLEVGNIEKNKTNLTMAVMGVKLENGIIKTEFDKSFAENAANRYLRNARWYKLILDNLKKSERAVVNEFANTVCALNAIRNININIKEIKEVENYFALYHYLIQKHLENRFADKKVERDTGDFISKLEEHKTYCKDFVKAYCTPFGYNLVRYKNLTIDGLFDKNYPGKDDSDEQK
- Protocol description: crRNA (strand 1, pre-loaded); Mg2+; 40 mM Tris-HCl pH 7.5, 150 mM NaCl, 6 mM MgCl2, 1 mM DTT, 0.1% Tween-20, 0.2 mg/ml BSA; 25 C; 10 min per concentration, then washed
- Stated conditions: tags: His6-TwinStrep-SUMO cleaved; N-terminal SNAP kept (SNAP-Surface 488); label: 3' end held by stalled T7 RNA polymerase
Please respond with true when measured Kd is strictly beneath 9 nM, and with false in all other cases.

For this binder, is Kd lower than 9 nM? target 3 insU 3' of 5,insG 3' of 2 (mixed) RNA 1: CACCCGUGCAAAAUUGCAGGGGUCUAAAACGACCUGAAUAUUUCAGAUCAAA RNA 2: GGGAAUGGAUCCACAUCUACGAAUUCGUUUUUGAUCUGAAAUAUUCAUGGUGCUGCAGAUCGGAAGAGCACACGU
true
